target: NANOLUC® Luciferase (Oplophorus gracilirostris, UniProt Q9GV45, A31E/A60N/A81I/F95D/I117V/K70R/L54V/L99Q/M102K/N193R/P142E/Q151K/Q38R/Q45L/V71I/Y165I); experiment: Spectral measurements in various buffers with NANOLUC luciferase (Example 10); format: biochemical; conditions: emission spectrum; NanoLuc; NanoGlo Buffer
Sequence (Q9GV45 28-196 with tags or gaps with the stated changes limits assumed): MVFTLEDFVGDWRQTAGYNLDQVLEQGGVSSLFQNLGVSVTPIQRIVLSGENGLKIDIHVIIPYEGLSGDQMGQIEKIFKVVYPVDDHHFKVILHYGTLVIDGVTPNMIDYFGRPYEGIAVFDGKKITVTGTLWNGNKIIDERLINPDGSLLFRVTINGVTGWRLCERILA
observable: High
Please respond with just the number, no unit label.

Reference set, count: 5
molecule	High
N#Cc1ccc(-c2[nH]c(-c3ccccc3)cn3c(=O)c(Cc4ccco4)nc2-3)s1 [AS-262]	634
O=c1c(Cc2ccco2)nc2c(-c3ccccc3)[nH]c(-c3ccccc3)cn1-2 [AS-174]	541
N#Cc1ccc(-c2[nH]c(-c3ccc(O)cc3)cn3c(=O)c(Cc4ccco4)nc2-3)s1 [AS-353]	652
O=c1c(Cc2ccco2)nc2c(Cc3ccccc3)[nH]c(-c3ccccc3)cn1-2 [Furimazine]	520
Oc1ccc(-c2cn3c(O)c(Cc4ccccc4)nc3c(Cc3ccccc3)n2)cc1 [Coelenterazine-H]	508

Reported High, molecule O=c1c(Cc2ccco2)nc2c(-c3ccnc4ccccc34)[nH]c(-c3ccccc3)cn1-2 [AS-310] : ____ 631

Reported High, molecule O=c1c(Cc2ccco2)nc2c(-c3ccnc4ccccc34)[nH]c(-c3ccc(O)cc3)cn1-2 [AS-360] : ____ 647

----------
Item-by-item account of NanoGlo (spectral peak, Table 4)
target: NANOLUC® Luciferase (Oplophorus gracilirostris, UniProt Q9GV45, A31E/A60N/A81I/F95D/I117V/K70R/L54V/L99Q/M102K/N193R/P142E/Q151K/Q38R/Q45L/V71I/Y165I); test: Spectral measurements in various buffers with NANOLUC luciferase (Example 10); type: biochemical; settings: NanoLuc; NanoGlo buffer

Reference set, count: 3
structure.string	NanoGlo (spectral peak, Table 4)
O=c1c(Cc2ccco2)nc2c(-c3ccccc3)[nH]c(-c3ccccc3)cn1-2	493
N#Cc1ccc(-c2[nH]c(-c3ccccc3)cn3c(=O)c(Cc4ccco4)nc2-3)s1	577
N#Cc1ccc(-c2[nH]c(-c3ccc(O)cc3)cn3c(=O)c(Cc4ccco4)nc2-3)s1	592

Now look at this entry.
Reported NanoGlo (spectral peak, Table 4), compound O=c1c(Cc2ccco2)nc2c(-c3ccnc4ccccc34)[nH]c(-c3ccccc3)cn1-2 : ____ 574

----------
biological target: NANOLUC® Luciferase (Oplophorus gracilirostris, UniProt Q9GV45, A31E/A60N/A81I/F95D/I117V/K70R/L54V/L99Q/M102K/N193R/P142E/Q151K/Q38R/Q45L/V71I/Y165I); assay: Spectral measurements in various buffers with NANOLUC luciferase (Example 10); assay type: biochemical; details: emission spectrum; NanoLuc; OptiMEM + 0.1% FBS
observable: High
Please respond with just the number, no unit label.

Reference set, count: 5
compound	High
Oc1ccc(-c2cn3c(O)c(Cc4ccccc4)nc3c(Cc3ccccc3)n2)cc1 [Coelenterazine-H]	502
N#Cc1ccc(-c2[nH]c(-c3ccccc3)cn3c(=O)c(Cc4ccco4)nc2-3)s1 [AS-262]	625
O=c1c(Cc2ccco2)nc2c(-c3ccnc4ccccc34)[nH]c(-c3ccccc3)cn1-2 [AS-310]	631
N#Cc1ccc(-c2[nH]c(-c3ccc(O)cc3)cn3c(=O)c(Cc4ccco4)nc2-3)s1 [AS-353]	637
O=c1c(Cc2ccco2)nc2c(Cc3ccccc3)[nH]c(-c3ccccc3)cn1-2 [Furimazine]	499

Reported High, compound O=c1c(Cc2ccco2)nc2c(-c3ccnc4ccccc34)[nH]c(-c3ccc(O)cc3)cn1-2 [AS-360] : ____ 646

Reported High, compound O=c1c(Cc2ccco2)nc2c(-c3ccccc3)[nH]c(-c3ccccc3)cn1-2 [AS-174] : ____ 535
